Task for the reader: assign each of the following compounds its reported pIC50.
molecular target: recombinant human Mcl-1 (residues 171-327) / Bim interaction (Homo sapiens (Human)); experiment: biochemical; assay type: binding; conditions: 0.1 nM Mcl-1(171-327), 0.05 nM biotin-Bim (51-76); read-out: Mcl-1 HTRF IC50
As a rule, pIC50 stands for the negative log10 of the concentration, concentration in M.

Identify pIC50 associated with the compound CO[C@@]1(CN2CCCCC2)/C=C/C[C@H](C)[C@@H](C)S(=O)(=O)NC(=O)c2ccc3c(c2)N(C[C@@H]2CC[C@H]21)C[C@@]1(CCCc2cc(Cl)ccc21)CO3
8.69

Supply pIC50 value. Item: CCO[C@]1(CN2CCN(C3COC3)CC2)/C=C/C[C@H](C)[C@@H](COC)S(=O)(=O)NC(=O)c2ccc3c(c2)N(C[C@@H]2CC[C@H]21)C[C@@]1(CCCc2cc(Cl)ccc21)CO3
10.16

Using the record for CO[C@]1(CN2C[C@@H](C)N[C@@H](C)C2)/C=C/C[C@H](C)[C@@H](C)S(=O)(=O)NC(=O)c2ccc3c(c2)N(C[C@@H]2CC[C@H]21)C[C@@]1(CCCc2cc(Cl)ccc21)CO3 , state its measured pIC50.
9.86

Look up and state reported pIC50 for CO[C@@]1(CN2CCC2)/C=C/C[C@H](C)[C@@H](C)S(=O)(=O)NC(=O)c2ccc3c(c2)N(C[C@@H]2CC[C@H]21)C[C@@]1(CCCc2cc(Cl)ccc21)CO3
8.91

Quote pIC50 reported for COCC(COC)N1CCN(C[C@]2(OC)/C=C/C[C@H](C)[C@@H](C)S(=O)(=O)NC(=O)c3ccc4c(n3)N(C[C@@H]3CC[C@H]32)C[C@@]2(CCCc3cc(Cl)ccc32)CO4)CC1 please.
10.00

Answer with reported pIC50 of CO[C@]1(CN2CCN3CCCC[C@@H]3C2)/C=C/C[C@H](C)[C@@H](CC=O)S(=O)(=O)NC(=O)c2ccc3c(c2)N(C[C@@H]2CC[C@H]21)C[C@@]1(CCCc2cc(Cl)ccc21)CO3
8.97

Output measured pIC50 for this item: CCO[C@]1(CN2CCN3CCOC[C@@H]3C2)/C=C/C[C@H](C)[C@@H](CC2CCC2)S(=O)(=O)NC(=O)c2ccc3c(c2)N(C[C@@H]2CC[C@H]21)C[C@@]1(CCCc2cc(Cl)ccc21)CO3
9.61

Give pIC50 for the following compound: CO[C@@]1(CN2CCC3(CC2)COC3)/C=C/C[C@H](C)[C@@H](C)S(=O)(=O)NC(=O)c2ccc3c(c2)N(C[C@@H]2CC[C@H]21)C[C@@]1(CCCc2cc(Cl)ccc21)CO3
9.53

Fill in reported pIC50 for this entry: CO[C@@]1(CN2CCc3ccccc3C2)/C=C/C[C@H](C)[C@@H](C)S(=O)(=O)NC(=O)c2ccc3c(c2)N(C[C@@H]2CC[C@H]21)C[C@@]1(CCCc2cc(Cl)ccc21)CO3
8.92

Quick one: give measured pIC50 for CO[C@]1(CN2CCN(CCF)CC2)/C=C/C[C@H](C)[C@@H](C)S(=O)(=O)NC(=O)c2ccc3c(c2)N(C[C@@H]2CC[C@H]21)C[C@@]1(CCCc2cc(Cl)ccc21)CO3
9.94

====

molecular target: recombinant human Mcl-1 (residues 171-327) / Bim interaction (Homo sapiens (Human), UniProt Q07820); assay: biochemical; format: binding; conditions: TR-FRET, Mcl-1(171-327) / biotin-Bim (51-76); read-out: Mcl-1 HTRF IC50
Sequence (Q07820 171-327): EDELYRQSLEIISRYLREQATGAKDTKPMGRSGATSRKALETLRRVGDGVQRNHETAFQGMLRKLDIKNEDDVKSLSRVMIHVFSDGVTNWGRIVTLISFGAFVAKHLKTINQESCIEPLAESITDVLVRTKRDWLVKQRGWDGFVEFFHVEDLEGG
Rule: IC50 below 0.5 nM gives t, anything at or above gives f.

Hello, is IC50 of the following compound strictly smaller than 0.5 nM? C[C@@H]1[C@@H](C)C/C=C/[C@]2(CCCO2)[C@@H]2CC[C@H]2CN2C[C@@]3(CCCc4cc(Cl)ccc43)COc3ccc(cc32)C(=O)NS1(=O)=O (stereo in doubt)
f

Could you please tell me whether IC50 recorded for CO[C@]1(CS(C)(=O)=O)/C=C/C[C@H](C)[C@@H](C)S(=O)(=O)NC(=O)c2ccc3c(c2)N(C[C@@H]2CC[C@H]21)C[C@@]1(CCCc2cc(Cl)ccc21)CO3 is less than 0.5 nM?
f

Confirm or reject: IC50 of C[C@@H]1[C@@H](C)CCC[C@]2(CC(N3CCN(C)CC3)=NO2)[C@@H]2CC[C@H]2CN2C[C@@]3(CCCc4cc(Cl)ccc43)COc3ccc(cc32)C(=O)NS1(=O)=O lies strictly below 0.5 nM
t

Hi there! Is IC50 for CO[C@@]1(c2nccn2C)CCC[C@H](C)[C@@H](C)S(=O)(=O)NC(=O)c2ccc3c(c2)N(C[C@@H]2CC[C@H]21)C[C@@]1(CCCc2cc(Cl)ccc21)CO3 below 0.5 nM, do you know?
t

Hello, I'm reviewing records and need to know if IC50 of CO[C@@]1(CCN2CCCCC2)/C=C/C[C@H](C)[C@@H](C)S(=O)(=O)NC(=O)c2ccc3c(c2)N(C[C@@H]2CC[C@H]21)C[C@@]1(CCCc2cc(Cl)ccc21)CO3 is below 0.5 nM. Could you check?
t

Given the entry C[C@@H]1[C@@H](C)CCC[C@@](O)(CCN2CCOCC2)[C@@H]2CC[C@H]2CN2C[C@@]3(CCCc4cc(Cl)ccc43)COc3ccc(cc32)C(=O)NS1(=O)=O [Example 100096] , would its reported IC50 be below 0.5 nM?
f

Consider the compound CO[C@@]1(C2SCCCS2)/C=C/[C@H](C)[C@H](C)CS(=O)(=O)NC(=O)c2ccc3c(c2)N(C[C@@H]2CC[C@H]21)C[C@@]1(CCCc2cc(Cl)ccc21)CO3 . Is its IC50 strictly less than 0.5 nM?
t

Determine whether this compound shows IC50 lower than 0.5 nM (ties excluded): CC[C@@H]1CC/C=C/[C@](O)(C(F)(F)F)[C@@H]2CC[C@H]2CN2C[C@@]3(CCCc4cc(Cl)ccc43)COc3ccc(cc32)C(=O)NS1(=O)=O [Example 100047]
f

Decide: IC50 of CO[C@]1(CCO)/C=C/C[C@H](C)[C@@H](C)S(=O)(=O)NC(=O)c2ccc3c(c2)N(C[C@@H]2CC[C@H]21)C[C@@]1(CCCc2cc(Cl)ccc21)CO3 strictly below 0.5 nM?
t

Determine if C[C@@H]1[C@@H](C)CCC[C@](O)(Cc2ccccc2)[C@@H]2CC[C@H]2CN2C[C@@]3(CCCc4cc(Cl)ccc43)COc3ccc(cc32)C(=O)NS1(=O)=O (single isomer, unassigned) shows IC50 strictly lower than 0.5 nM.
t

====

Answer each item with its documented pIC50.
target: recombinant human Mcl-1 (residues 171-327) / Bim interaction (Homo sapiens (Human)); assay: biochemical; type: binding; settings: 0.1 nM Mcl-1(171-327), 0.05 nM biotin-Bim (51-76); read-out: Mcl-1 HTRF IC50
// field semantics: pIC50 = negative decimal log of concentration (mol/L)

Let me know recorded pIC50 for COC(=O)CN1CCN(C[C@]2(OC)/C=C/C[C@H](C)[C@@H](C)S(=O)(=O)NC(=O)c3ccc4c(c3)N(C[C@@H]3CC[C@H]32)C[C@@]2(CCCc3cc(Cl)ccc32)CO4)CC1 [Example 269] , thanks.
9.98

State its pIC50 for this compound: CO[C@@]1(CN2CCc3nocc3C2)/C=C/C[C@H](C)[C@@H](C)S(=O)(=O)NC(=O)c2ccc3c(c2)N(C[C@@H]2CC[C@H]21)C[C@@]1(CCCc2cc(Cl)ccc21)CO3 [Example 200]
9.50

// fetch pIC50 given entry CCCN1CCN(C[C@@]2(OC)/C=C/C[C@H](C)[C@@H](C)S(=O)(=O)NC(=O)c3ccc4c(c3)N(C[C@@H]3CC[C@H]32)C[C@@]2(CCCc3cc(Cl)ccc32)CO4)CC1 [Example 97]
9.52

====

target: recombinant human Mcl-1 (residues 171-327) / Bim interaction (Homo sapiens (Human)); assay: biochemical; type: binding; details: read-out: Mcl-1 HTRF IC50
ATTRIBUTE MEASURED: IC50

Report its IC50 with recombinant human Mcl-1 (residues 171-327) / Bim interaction (Homo sapiens (Human)) as the test system: C[C@@H]1[C@@H](C)C/C=C/[C@@](O)(CC#N)[C@@H]2CC[C@H]2CN2C[C@@]3(CCCc4cc(Cl)ccc43)COc3ccc(cc32)C(=O)NS1(=O)=O [Example 100050]
1.28 nM

Fill in IC50 for CCN(CC)C(=O)C[C@]1(O)CCC[C@H](C)[C@@H](C)S(=O)(=O)NC(=O)c2ccc3c(c2)N(C[C@@H]2CC[C@H]21)C[C@@]1(CCCc2cc(Cl)ccc21)CO3 [Example 100111] tested with recombinant human Mcl-1 (residues 171-327) / Bim interaction (Homo sapiens (Human)).
0.352 nM

Enter IC50 (test system recombinant human Mcl-1 (residues 171-327) / Bim interaction (Homo sapiens (Human))) for C[C@@H]1[C@@H](C)CCC[C@@](C=O)(CN2CCOCC2)[C@@H]2CC[C@H]2CN2C[C@@]3(CCCc4cc(Cl)ccc43)COc3ccc(cc32)C(=O)NS1(=O)=O
1.12 nM

Tell me its IC50 on recombinant human Mcl-1 (residues 171-327) / Bim interaction (Homo sapiens (Human)): C[C@@H]1[C@@H](C)CCC[C@@](O)(COS(C)(=O)=O)[C@@H]2CC[C@H]2CN2C[C@@]3(CCCc4cc(Cl)ccc43)COc3ccc(cc32)C(=O)NS1(=O)=O [Example 100283]
0.143 nM

Under recombinant human Mcl-1 (residues 171-327) / Bim interaction (Homo sapiens (Human)): report IC50 of CCC[C@@]1(O)/C=C/C[C@H](C)[C@@H](C)S(=O)(=O)NC(=O)c2ccc3c(c2)N(C[C@@H]2CC[C@H]21)C[C@@]1(CCCc2cc(Cl)ccc21)CO3 .
2.67 nM

These entries and their values trace back to patent US10821115B2.
